Tested on: K562
Experiment: Cytotoxicity against human K562 cells by MTT assay
Format: functional, cell-based
metricName: IC50

Below: 2 molecules and their reported IC50.
>>> print(df.to_string())
                          chemicalsmiles  metricname  observedvalue
0  CCCC1=C/C(=C\[C@H](O)[C@@H](C)O)OC1=O        IC50        > 50 µM
1            CC[C@H](O)c1oc(=O)cc(OC)c1C        IC50        > 50 µM

Pending molecule:
For the molecule CCCC1=C/C(=C/[C@H](O)[C@@H](C)O)OC1=O , report IC50.
> 50 µM

----------
Tested on: CCRF-CEM
Assay: Cytotoxicity against human CCRF-CEM cells by MTT assay
Assay type: functional, cell-based
metricName: IC50

Examples with answers:
                          chemicalsmiles  targetofassay  observedvalue
0  CCCC1=C/C(=C\[C@H](O)[C@@H](C)O)OC1=O       CCRF-CEM        > 50 µM
1            CC[C@H](O)c1oc(=O)cc(OC)c1C       CCRF-CEM        > 50 µM

Attention now turns to another entry.
Please give the documented IC50 of CCCC1=C/C(=C/[C@H](O)[C@@H](C)O)OC1=O
> 50 µM
